- Test system: histone H2A.Z Lysine 7 acetylation (TIP60 mediated) in U2OS cells
- Protocol description: H2A.Z Lysine 7 Acetylation Biomarker Assay (96 well, U2OS)
- Format: cell-based
- Study conditions: Table 7, H2A.Z K7ac, 24 hours incubation, serum free medium
pIC50: −log10 of the molar value.
Measurement label: pIC50

| Molecule | Observed value |
| --- | --- |
| O=C(NCC(c1ccccc1)c1ncco1)C1=Nc2ccc(Br)cc2S(=O)(=O)N1 (single isomer, unassigned) [Example 138] | 5.84 |

I = O=C(NCC(c1ccccc1)c1ncco1)C1=Nc2ccc(I)cc2S(=O)(=O)N1 (single isomer, unassigned) [Example 146]
II = O=C(NCC(c1ccccc1)c1ncco1)C1=Nc2ccc(I)cc2S(=O)(=O)N1 (single isomer, unassigned) [Example 147]
III = O=C(NCC(c1ccccc1)c1ncco1)C1=Nc2ccc(Br)cc2S(=O)(=O)N1 (single isomer, unassigned) [Example 139]
Number of molecules to sort: 3. Sort criterion: pIC50, ascending. The labels, placed in the requested order, form the answer.
III, II, I
(III: 5.30, II: 5.84, I: 6.35)

---

- Experimental system: UniProt Q9H7Z6
- Protocol description: Revised Acetyltransferase Biochemical Assay, KAT8
Measurement label: IC50 (µM)

| Compound | IC50 / µM |
| --- | --- |
| Cc1cccc(C(CNC(=O)C2=Nc3ccc(Cl)cc3S(=O)(=O)N2)c2ncco2)c1 (centres unmarked) | 23.6 |

P = Cc1cccc(C(CNC(=O)C2=Nc3ccc(I)cc3S(=O)(=O)N2)c2ncco2)c1 (centres unmarked)
Q = O=C(NCC(c1ccccc1)n1cccn1)C1=Nc2ccc(Br)cc2S(=O)(=O)N1 (centres unmarked)
R = CS(=O)(=O)Nc1ccc2c(c1)S(=O)(=O)NC(C(=O)NCC(c1ccccc1)c1ncco1)=N2 (centres unmarked)
S = O=C(NCC(F)(F)c1ccccc1OC(F)F)C1=Nc2ccc(Cl)cc2S(=O)(=O)N1
Sort these compounds on IC50 so the largest reading comes first. The labels, placed in the requested order, form the answer.
Q, S, R, P

A = O=C(NCC(CCO)c1ccccc1)C1=Nc2ccccc2S(=O)(=O)N1 (centres unmarked)
B = COc1ccccc1CCNC(=O)C1=Nc2ccc(I)cc2S(=O)(=O)N1
C = O=C(NCC(c1ncco1)c1ccccc1-c1ccccc1)C1=Nc2ccccc2S(=O)(=O)N1 (centres unmarked)
D = O=C(NCC(c1ccccc1)c1ncco1)C1=Nc2ccc(Br)cc2S(=O)(=O)N1 (centres unmarked)
Number of compounds to sort: 4. Sort criterion: IC50, ascending. The labels, placed in the requested order, form the answer.
D, A, C, B
(D: 4.54 µM, A: 12.2 µM, C: 23 µM, B: 42.4 µM)

a = O=C(NCC(c1ncco1)c1ccccc1O)C1=Nc2ccc(I)cc2S(=O)(=O)N1 (centres unmarked)
b = COc1cccc(C(CNC(=O)C2=Nc3ccc(Cl)cc3S(=O)(=O)N2)c2ncco2)c1 (centres unmarked)
In the pair a and b , the larger recorded IC50 belongs to which? Your answer should be the label attached to the chosen record.
b
(b: 30.2 µM, a: 9.66 µM)

---

- Experimental system: MOZ-KAT6A (Homo sapiens, UniProt Q92794, A567V)
- Construct: encoding amino acid residues 507 to 778 (Uniprot Q92794-1) of human KAT6A; made in house; host or cells: E. coli BL21 DE3
- Sequence (Q92794 507-778 A567V limits assumed): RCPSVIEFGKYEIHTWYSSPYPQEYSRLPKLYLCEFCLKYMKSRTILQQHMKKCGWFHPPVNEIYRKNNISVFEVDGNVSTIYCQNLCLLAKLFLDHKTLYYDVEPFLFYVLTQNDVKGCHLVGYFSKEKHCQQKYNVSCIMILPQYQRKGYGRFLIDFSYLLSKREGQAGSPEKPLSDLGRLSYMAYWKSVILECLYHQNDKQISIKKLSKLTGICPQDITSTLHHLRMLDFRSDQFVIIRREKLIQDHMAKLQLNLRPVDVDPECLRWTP
- Protocol description: Acetyltransferase biochemical assay (AlphaScreen), KAT6A
- Study conditions: Table 2 (MOZ-KAT6A); 10 μM Acetyl coenzyme A, histone H3.1, 5 nM enzyme
Measurement label: IC50 (µM)

Below, 3 compounds whose answers are already recorded.
| Compound | Measurement label | Observed value |
| --- | --- | --- |
| COC(=O)c1ccc2c(c1)S(=O)(=O)NC(C(=O)NCC(c1ccccc1)c1ccccc1)=N2 [Example 20] | IC50 | 6.05 |
| O=C(NCCc1cccnc1)C1=Nc2ccc(Br)cc2S(=O)(=O)N1 [Example 80] | IC50 | 58.8 |
| O=C(NCC(c1ccccc1)c1ccccc1)C1=Nc2ccc(C3CC3)cc2S(=O)(=O)N1 [Example 17] | IC50 | 3.33 |

P = O=C(NCC(c1ccccc1)c1ncco1)C1=Nc2ccc(O)cc2S(=O)(=O)N1 (single isomer, unassigned) [Example 149]
Q = COc1ccccc1CCNC(=O)C1=Nc2ccc(I)cc2S(=O)(=O)N1 [Example 86]
In the pair P and Q , the larger recorded IC50 belongs to which? Your answer should be the label attached to the chosen record.
Q
(Q: 2.7 µM, P: 0.102 µM)

P = O=C(NCCc1ccccc1O)C1=Nc2ccc(Br)cc2S(=O)(=O)N1 [Example 116]
Q = O=C(NCCc1ccccc1-c1cccnc1)C1=Nc2ccccc2S(=O)(=O)N1 [Example 34]
In the pair P and Q , the larger recorded IC50 belongs to which? Your answer should be the label attached to the chosen record.
Q

---

- Experimental system: MOF-KAT8 (Homo sapiens, UniProt Q9H7Z6)
- Sequence (Q9H7Z6 177-447): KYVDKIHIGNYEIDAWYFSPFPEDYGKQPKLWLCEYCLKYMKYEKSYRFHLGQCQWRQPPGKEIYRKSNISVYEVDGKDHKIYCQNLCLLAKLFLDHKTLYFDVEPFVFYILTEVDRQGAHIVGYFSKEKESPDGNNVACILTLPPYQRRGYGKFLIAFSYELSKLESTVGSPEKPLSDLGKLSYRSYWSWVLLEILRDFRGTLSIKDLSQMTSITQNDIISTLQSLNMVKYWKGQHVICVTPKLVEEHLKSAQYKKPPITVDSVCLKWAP
- Protocol description: Acetyltransferase biochemical assay (AlphaScreen), KAT8
- Study conditions: Table 4 (MOF-KAT8); 0.4 μM Acetyl coenzyme A, histone H4, 20 nM enzyme
Measurement label: IC50 (µM)

Below, 6 compounds whose answers are already recorded.
| Compound | IC50 [µM] |
| --- | --- |
| O=C(NCC(c1cccc(Cl)c1)c1ncco1)C1=Nc2ccc(I)cc2S(=O)(=O)N1 (centres unmarked) | 9.78 |
| O=C(NCC(c1ccccc1)c1ncco1)C1=Nc2ccc(-c3c[nH]nn3)cc2S(=O)(=O)N1 (centres unmarked) | 3.54 |
| Cc1ccc(C(CNC(=O)C2=Nc3ccc(I)cc3S(=O)(=O)N2)c2ncco2)cc1 (centres unmarked) | 5.14 |
| O=C(NCC(c1ccccc1)c1ncco1)C1=Nc2ccc(C(=O)O)cc2S(=O)(=O)N1 (centres unmarked) | 69.6 |
| O=C(NCC(c1ccccc1)c1ncco1)C1=Nc2ccc(Cl)cc2S(=O)(=O)N1 (centres unmarked) | 50 |
| Cc1cccc(C(CNC(=O)C2=Nc3ccc(Cl)cc3S(=O)(=O)N2)c2ncco2)c1 (centres unmarked) | 57.3 |

A = O=C(NCC(c1ccccn1)n1cccn1)C1=Nc2ccc(Br)cc2S(=O)(=O)N1 (centres unmarked)
B = O=C(NCC(F)(c1ccccc1)c1ncco1)C1=Nc2ccc(I)cc2S(=O)(=O)N1 (centres unmarked)
Between item A and item B , which reported IC50 is smaller? Your answer should be the label attached to the chosen record.
B

1 = O=C(NCC(c1ccccc1)c1ncco1)C1=Nc2ccc(OC(F)(F)F)cc2S(=O)(=O)N1 (centres unmarked)
2 = [C-]#[N+]c1ccc2c(c1)S(=O)(=O)NC(C(=O)NCC(c1ccccc1)c1ncco1)=N2 (single isomer, unassigned) [Example 142]
In the pair 1 and 2 , the larger recorded IC50 belongs to which? Your answer should be the label attached to the chosen record.
2
(2: 56.7 µM, 1: 27.7 µM)

a = [C-]#[N+]c1ccc2c(c1)S(=O)(=O)NC(C(=O)NCC(c1ccccc1)c1ncco1)=N2 (single isomer, unassigned) [Example 143]
b = O=C(NCC(c1ncco1)c1ccccc1F)C1=Nc2ccc(Cl)cc2S(=O)(=O)N1 (centres unmarked)
Between item a and item b , which reported IC50 is smaller? Your answer should be the label attached to the chosen record.
b
(b: 20.2 µM, a: 30 µM)

---

- Experimental system: TIP60-KAT5 (Homo sapiens)
- Construct: encoding amino acid residues 2 to 461 (Uniprot Q92993-2) of human KAT5 isoform; made in house; host or cells: E. coli BL21 DE3
- Sequence (Q92993 2-461 isoform Q92993-2): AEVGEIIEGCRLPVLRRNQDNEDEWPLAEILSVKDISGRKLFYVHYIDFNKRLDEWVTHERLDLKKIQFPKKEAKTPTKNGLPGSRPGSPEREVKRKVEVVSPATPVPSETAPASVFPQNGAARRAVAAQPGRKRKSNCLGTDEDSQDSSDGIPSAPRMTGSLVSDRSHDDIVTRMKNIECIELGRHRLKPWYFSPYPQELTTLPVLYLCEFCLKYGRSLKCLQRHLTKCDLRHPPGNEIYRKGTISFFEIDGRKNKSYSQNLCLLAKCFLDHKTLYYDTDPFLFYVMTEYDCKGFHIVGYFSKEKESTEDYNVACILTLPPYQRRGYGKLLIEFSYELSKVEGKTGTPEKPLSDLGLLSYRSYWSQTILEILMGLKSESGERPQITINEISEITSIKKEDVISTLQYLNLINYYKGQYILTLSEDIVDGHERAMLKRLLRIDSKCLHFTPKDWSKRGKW
- Protocol description: Revised Acetyltransferase Biochemical Assay, KAT5
- Study conditions: 10 nM KAT5, 1 μM AcCoA, 100 nM histone H4, 90 min
pIC50: −log10 of the molar value.
Measurement label: pIC50

P = COC(=O)NC(CNC(=O)C1=Nc2ccccc2S(=O)(=O)N1)c1ccccc1 (centres unmarked) [Example 129]
Q = O=C(NCC(c1ccccc1)c1ncco1)C1=Nc2ccc(C(F)(F)F)cc2S(=O)(=O)N1 (centres unmarked) [Example 120]
In the pair P and Q , the larger recorded pIC50 belongs to which? Your answer should be the label attached to the chosen record.
Q
(Q: 6.65, P: 4.23)

A = CC(NS(C)(=O)=O)c1ccc2c(c1)S(=O)(=O)NC(C(=O)NCC(c1ccccc1)c1ncco1)=N2 (centres unmarked) [Example 210]
B = O=C(NCC(c1ccccc1)c1nc(CO)no1)C1=Nc2ccc(I)cc2S(=O)(=O)N1 (centres unmarked) [Example 59]
In the pair A and B , the larger recorded pIC50 belongs to which? Your answer should be the label attached to the chosen record.
B
(B: 6.14, A: 4.96)

Origin of the recorded values: patent US20210380548A1
